Kindly state tissue uptake at 1 min for each of the entries shown.
Test: Biodistribution studies in mice (radioiodinated compounds, % ID/g-tissue)
Assay type: in vivo
Conditions: mouse, kidney, iv, kidney, 1', tracer level, but MDTA-Na 0.18M and MDTA-NMG 0.19M, read-out: Biodistribution, Kidney 1'
Answers are plain numbers, in %ID/g.

List reported tissue uptake at 1 min for each of these molecules:
1. CC(=O)N(C)c1c(I)c(C(=O)Nc2ccc(CCCCCCCCCCCCCCC(=O)O)cc2)c(I)c(N(C)C(C)=O)c1I [Example F15-P-MDTA]
2. CC(=O)N(C)c1c(I)c(C(=O)NCCCC(=O)O)c(I)c(N(C)C(C)=O)c1I [Example F4-DP-MDTA]
3. CC(=O)N(C)c1c(I)c(C(=O)NCC(=O)O)c(I)c(N(C)C(C)=O)c1I [Example F2-DP-MDTA]

8.28
17.9
17.1

###

Experiment: Biodistribution studies in mice (radioiodinated compounds, % ID/g-tissue)
Assay type: in vivo
Settings: mouse, kidney, iv, kidney, 5', tracer level, but MDTA-Na 0.18M and MDTA-NMG 0.19M, read-out: Biodistribution, Kidney 5'
Kindly state tissue uptake at 5 min for each of the entries shown.
Numbers only, in %ID/g.

List reported tissue uptake at 5 min for each of these molecules:
1. CC(=O)N(C)c1c(I)c(C(=O)NCCCCCCC(=O)O)c(I)c(N(C)C(C)=O)c1I
2. CC(=O)N(C)c1c(I)c(C(=O)Nc2ccc(CCCCCCC(=O)O)cc2)c(I)c(N(C)C(C)=O)c1I
3. CC(=O)N(C)c1c(I)c(C(=O)Nc2ccc(CCCCCCCCCCCCCCC(=O)O)cc2)c(I)c(N(C)C(C)=O)c1I
4. CC(=O)N(C)c1c(I)c(C(=O)NCC(=O)O)c(I)c(N(C)C(C)=O)c1I

1: 8.33; 2: 2.94; 3: 5.1; 4: 5.69

###

Test: Biodistribution studies in mice (radioiodinated compounds, % ID/g-tissue)
Type: in vivo
Conditions: mouse, liver, iv, liver, 5', tracer level, but MDTA-Na 0.18M and MDTA-NMG 0.19M, read-out: Biodistribution, Liver 5'
Readout type: tissue uptake at 5 min (%ID/g)
One number for each entry, in %ID/g.

Consider the following illustrative entries.
I'd like to know its tissue uptake at 5 min. The compound in question is CC(=O)N(C)c1c(I)c(C(=O)Nc2ccc(CCCCCCC(=O)O)cc2)c(I)c(N(C)C(C)=O)c1I
37.2

I'd like to know its tissue uptake at 5 min. The compound in question is CC(=O)N(C)c1c(I)c(C(=O)Nc2ccc(CCCCCCCCCCCCCCC(=O)O)cc2)c(I)c(N(C)C(C)=O)c1I
76.3

List reported tissue uptake at 5 min for each of these compounds:
1. CC(=O)N(C)c1c(I)c(C(=O)NCC(=O)O)c(I)c(N(C)C(C)=O)c1I
2. CC(=O)N(C)c1c(I)c(C(=O)Nc2ccc(CC(=O)O)cc2)c(I)c(N(C)C(C)=O)c1I

10.6
12.9

###

Assay: Biodistribution studies in mice (radioiodinated compounds, % ID/g-tissue)
Format: in vivo
Conditions: mouse, blood, iv, blood, 5', tracer level, but MDTA-Na 0.18M and MDTA-NMG 0.19M, read-out: Biodistribution, Blood 5'
The threshold is inclusive: tissue uptake at 5 min of exactly 1 %ID/g counts as met; values below receive not met.

Is tissue uptake at 5 min for CC(=O)N(C)c1c(I)c(C(=O)NCCCC(=O)O)c(I)c(N(C)C(C)=O)c1I [Example F4-DP-MDTA] at or above 1 %ID/g?
not met

Is tissue uptake at 5 min for CC(=O)N(C)c1c(I)c(C(=O)Nc2ccc(CCCCCCCCCCCCCCCCCCC(=O)O)cc2)c(I)c(N(C)C(C)=O)c1I [Example F19-P-MDTA] at or above 1 %ID/g?
met

Is tissue uptake at 5 min for CC(=O)N(C)c1c(I)c(C(=O)Nc2ccc(CCCCCCCCCCCCCCC(=O)O)cc2)c(I)c(N(C)C(C)=O)c1I [Example F15-P-MDTA] at or above 1 %ID/g?
met

Is tissue uptake at 5 min for CC(=O)N(C)c1c(I)c(C(=O)Nc2ccc(CCCCCCC(=O)O)cc2)c(I)c(N(C)C(C)=O)c1I [Example F7-P-MDTA] at or above 1 %ID/g?
not met

Is tissue uptake at 5 min for CC(=O)N(C)c1c(I)c(C(=O)Nc2ccc(CC(=O)O)cc2)c(I)c(N(C)C(C)=O)c1I [Example F2-P-MDTA] at or above 1 %ID/g?
not met

Is tissue uptake at 5 min for CC(=O)N(C)c1c(I)c(C(=O)NCCCCCCC(=O)O)c(I)c(N(C)C(C)=O)c1I [Example F7-DP-MDTA] at or above 1 %ID/g?
not met

Is tissue uptake at 5 min for CC(=O)N(C)c1c(I)c(C(=O)NCCCCCCCCCCCC(=O)O)c(I)c(N(C)C(C)=O)c1I [Example F12-DP-MDTA] at or above 1 %ID/g?
not met

src = patent US6264916A
